- PROTOCOL_TEXT: Luminescence Cell-Based Dose Response HTS to Identify Inhibitors of 5'UTR Stem-Loop Driven Prion Protein mRNA Translation in H4 Neuroglioblastoma Cells. [Related pubchem assays: 1827 (Project Summary), 1813 (Primary HTS)]
- Format: functional
Calls of active or inactive are those of the source. Cut-off read from the data, not from the text of the source: actives have a measured EC50 and inactives only a lower limit.
Recorded measurements of EC50, one per entry

| COMPOUND | RESULT |
| --- | --- |
| CC(NC(=O)COC(=O)c1ccc2c(c1)S(=O)(=O)N=C1CCCCCN12)C12CC3CC(CC(C3)C1)C2 (stereo not given) | > 120 µM (not active) |
| CCOC(=O)c1sc2nc(CSc3ccccc3)nc(N3CCCN(C)CC3)c2c1C | > 120 µM (not active) |
| COc1ccc(C(=O)/C=C/C(=O)N(CC(=O)NC2CCCCC2)Cc2ccccc2)c(O)c1 | > 120 µM (not active) |
| COc1cccc(-n2nc3c(S)nnc(C)c3c2C)c1 | > 120 µM (not active) |

Turning to the following compound.
Q) For the compound O=C(CCc1nnc(-c2ccc(-c3ccccc3)cc2)o1)NCCc1ccccn1 , what EC50 is on record?
A) 21.4 µM (active)

----------
EC50 reference
- Test system: Streptococcus
- PROTOCOL_TEXT: GAS UMAA2166 growth inhibition – luminescence, BacTiterGlo, counter-screen for streptokinase expression inhibitor project, dose response (AID 1915);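 note: potency for reduction of bacterial viability or growth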
- Format: functional, organism-based
The source made the active and inactive calls. Rule as the data show it: actives have a measured EC50 and inactives only a lower limit.

| STRUCTURE_NOTATION | RESULT |
| --- | --- |
| O=c1c2cc(Br)ccc2nc(-c2cccc(Cl)c2)n1O | 2.86 µM (active) |
| Cc1ccc(-n2c(N)c(-c3nc4ccccc4n3C)sc2=S)cc1 | > 150 µM (not active) |
| O=C1c2cccc3c([N+](=O)[O-])ccc(c23)C(=O)N1O | 15.8 µM (active) |

Q) I'd like to know its EC50. The compound in question is CCOc1ccc(-c2nc3n(c(=O)c2C#N)CCCS3)cc1
A) 148 µM (active)

Q) Form field: reported EC50 of Cc1ccc(-c2cc(-c3ccccc3)nc(N(C)N)n2)cc1
A) > 150 µM (not active)

Q) Fill blank: measured EC50 of the compound Cc1ccc(-c2csc(-c3c[nH]c4ccccc34)n2)c(C)c1 is ____.
A) 7.96 µM (active)

Q) Which EC50 reading was recorded for the compound Cc1ccccc1CN(C)CC(=O)Nc1ccccc1-c1ccccc1 ?
A) > 150 µM (not active)

Q) Entry COc1ccc(-n2c(=O)c3c4c(sc3n3c(S)nnc23)CCC4)cc1 has what EC50?
A) 17.4 µM (active)

Q) Quick one: EC50 for O=[N+]([O-])c1ccc(NCc2ccc(Cl)cc2)c2ccncc12 ?
A) > 150 µM (not active)

----------
The reader will find reported EC50 values listed item by item below.
- TARGET_UNDER_TEST: Streptokinase A (Streptococcus pyogenes serotype M1, UniProt P10520)
- Sequence (P10520 whole entry): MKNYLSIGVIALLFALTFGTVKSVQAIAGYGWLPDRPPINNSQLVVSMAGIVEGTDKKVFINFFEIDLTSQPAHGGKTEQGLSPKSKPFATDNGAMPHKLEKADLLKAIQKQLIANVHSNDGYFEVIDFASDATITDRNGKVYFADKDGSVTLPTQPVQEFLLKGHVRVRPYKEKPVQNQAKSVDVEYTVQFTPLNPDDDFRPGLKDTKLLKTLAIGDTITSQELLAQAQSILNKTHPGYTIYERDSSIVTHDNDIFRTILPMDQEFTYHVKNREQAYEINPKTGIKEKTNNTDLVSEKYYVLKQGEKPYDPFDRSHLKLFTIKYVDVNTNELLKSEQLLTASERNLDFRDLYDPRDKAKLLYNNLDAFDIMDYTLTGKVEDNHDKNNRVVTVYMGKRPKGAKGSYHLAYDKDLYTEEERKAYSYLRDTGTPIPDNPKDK
- PROTOCOL_TEXT: viability-normalized secreted streptokinase activity reduction – plasminogen activation absorbance, OD405, dose response (AID 1914);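 note: secreted streptokinase activity via plasminogen activation per viability signal from cell pellet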
- Type: functional, Streptococcus pyogenes M1 GAS
Active and inactive are the calls of the source. Rule as the data show it: actives have a measured EC50 and inactives only a lower limit.

Here are 10 molecules together with their reported answers.
| MOLECULE | EC50 |
| --- | --- |
| O=C1c2cccc3c([N+](=O)[O-])ccc(c23)C(=O)N1O | > 150 µM (not active) |
| O=C(CSc1nnc(CNC(=O)c2ccccc2)o1)NCc1ccccc1 | > 150 µM (not active) |
| C/C(=N\Nc1nc2ccccc2[nH]1)c1ccc2c(c1)OCO2 | > 150 µM (not active) |
| CCOc1ccc(-c2nc3n(c(=O)c2C#N)CCCS3)cc1 | > 150 µM (not active) |
| CCCCNc1c(-c2ccc(SC(C)CC)c(OC)c2)nc2ccc(C)cn12 (stereo unspecified) | 8.79 µM (active) |
| Cc1c(C(=O)Nc2ccc(Oc3ccccc3)cc2)sc2nc3n(c(=O)c12)CCC3 | 39 µM (active) |
| COc1cnc(-c2ccccn2)nc1Oc1ccc(C(C)(C)C)cc1 | > 150 µM (not active) |
| Nc1nc(CN2CCN(c3ccccc3)CC2)nc(N2CCCc3ccccc32)n1 | > 150 µM (not active) |
| Cc1ccc(-n2c(N)c(-c3nc4ccccc4n3C)sc2=S)cc1 | > 150 µM (not active) |
| Cc1cc(C)c(C(=O)CC(=O)c2ccccc2Cl)c(O)c1 | > 150 µM (not active) |

Q) Give the measured EC50 of Cc1ccc2nc(N=C(NS(=O)(=O)c3ccc(F)cc3)c3ccccc3)sc2c1 .
A) > 50 µM (not active)

Q) Reported EC50, molecule Cc1ccc(-c2cc(-c3ccccc3)nc(N(C)N)n2)cc1 : ____
A) > 150 µM (not active)

Q) Given O=C(c1ccc(O)cc1)c1ccc(C(=O)c2ccc(O)cc2)cc1 , state its recorded EC50.
A) > 150 µM (not active)

Q) Recorded EC50 of O=C(CCN1C(=O)/C(=C/c2ccccc2Cl)SC1=S)NNC(=O)c1ccccc1O , please.
A) 8.36 µM (active)

Q) Requested read-out: EC50. Entry: O=[N+]([O-])c1ccc(NCc2ccc(Cl)cc2)c2ccncc12
A) 15.1 µM (active)

Q) Field request: EC50 | item: Cc1ccccc1CN(C)CC(=O)Nc1ccccc1-c1ccccc1
A) 23.3 µM (active)
